For each of the compounds below, state its growth.
- Tested on: SF-539 CNS
- TEST: NCI-60 one-dose screen, 48 h (100 = growth as untreated, 0 = no growth, -100 = all killed)
- CONDITION_LABEL: 10 µM unless noted
Compounds without any hit were thinned out: in the full panel of roughly 83,000, 20% have a hit.
Give bare numbers, in %.

Use these answered entries as a reference point.
CC1C(C)N(C(=O)CCl)c2ccccc2N1C(=O)CCl (stereo unspecified): -94.8
O=C(COc1ccc(/C=C2\Oc3ccc4ccccc4c3C2=O)cc1)c1ccc(Cl)cc1: 93.1
COc1ccc(C2=NN(C(C)=O)C(c3cccc(Nc4ccnc5cc(Cl)ccc45)c3)C2)cc1 (stereo unspecified): 72.7
Nc1ccc(Oc2c(F)c(F)c(Oc3ccc(N)cc3)c(F)c2F)cc1: 111
Cc1ccc2nc3c(n2c1)C(=O)C(=O)c1ccccc1-3: -90.1

Proceeding to the next compound to report its growth.
q: // Input: O=C(CN1CCN(c2ccc(Cl)cc2)CC1)N1CCN(c2nnc(-c3ccccc3)c(-c3ccccc3)n2)CC1 . Output its growth only.
a: 50.5
